For each entry below, report its IC50 value.
# Measured target: recombinant human renin (Homo sapiens)
# Sequence (P00797 67-406): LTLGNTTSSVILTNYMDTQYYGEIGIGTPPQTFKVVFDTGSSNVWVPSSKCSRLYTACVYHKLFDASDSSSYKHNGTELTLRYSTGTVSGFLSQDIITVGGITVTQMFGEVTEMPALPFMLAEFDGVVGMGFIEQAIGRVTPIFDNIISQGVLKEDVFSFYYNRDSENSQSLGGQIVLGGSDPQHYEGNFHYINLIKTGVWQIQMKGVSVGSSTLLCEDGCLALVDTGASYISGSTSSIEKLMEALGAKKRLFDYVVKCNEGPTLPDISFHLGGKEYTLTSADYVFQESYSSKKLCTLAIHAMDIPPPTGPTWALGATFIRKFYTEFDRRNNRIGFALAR
# Test protocol: Primary renin inhibition assay: IC50 in buffer, 384 well MTP (AngI quantified by EIA)
# Recorded conditions: human tetradecapeptide substrate, assay buffer pH 7.4, 37° C. for 3 h
Give bare numbers, in nM.

O=C(C1=C(c2nc(CCCOc3cc(C(F)(F)F)ccc3Cl)cs2)C[C@@H]2CNC[C@H]1N2)N(Cc1cccc(Cl)c1Cl)C1CC1 (racemic)
94

Provide the reported IC50 of each entry below, same order.
1. Cc1cc(Cl)c(OCCOc2ncc(C3=C(C(=O)N(Cc4cccc(Cl)c4C)C4CC4)[C@H]4CNC[C@@H](C3)N4)s2)c(Cl)c1 (racemic)
2. COc1cccc(CN(C(=O)C2=C(c3cnc(OCCOc4c(Cl)cc(C)cc4Cl)s3)C[C@@H]3CNC[C@H]2N3)C2CC2)c1C (racemic)
3. COc1cccc(CN(C(=O)C2=C(c3cnc(CCCOc4c(Cl)cc(C)cc4Cl)s3)C[C@@H]3CNC[C@H]2N3)C2CC2)c1C (racemic)
4. Cc1cc(Cl)c(OCCOc2ncc(C3=C(C(=O)N(Cc4cccc(F)c4F)C4CC4)[C@H]4CNC[C@@H](C3)N4)s2)c(Cl)c1 (racemic)
5. Cc1ccc(F)c(OCCOc2ncc(C3=C(C(=O)N(Cc4cccc(Cl)c4Cl)C4CC4)[C@H]4CNC[C@@H](C3)N4)s2)c1Cl (racemic)
6. Cc1ccc(F)c(OCCCc2coc(C3=C(C(=O)N(Cc4cccc(Cl)c4Cl)C4CC4)[C@H]4CNC[C@@H](C3)N4)n2)c1Cl (racemic)

1: 1.1; 2: 1.3; 3: 4.4; 4: 15; 5: 2.9; 6: 46
